All values here come from paper PMC10746280.

- Test system: RAW 264.7 macrophages
- protocolDescription: SAFIRE macrophage assay: host toxicity (adherent macrophage count, morphology)
- Assay type: cell-based
- protocolConditions: 5 uM
measuredAttribute: 5 uM Avg Cell # Score
Give bare numbers.

The examples below pair each entry with its known result.
{"molecule": "CN1CCC(N(C)CC(O)COc2ccc(Cl)c(Cl)c2)C1 (centres unmarked) [CU175]", "5 uM Avg Cell # Score": 108}
{"molecule": "NC(=O)[C@H]1CC[C@@H](NCC(O)COc2ccc(Cl)c(Cl)c2)C1 (some centres unmarked) [CU066]", "5 uM Avg Cell # Score": 91}
{"molecule": "N[C@H]1CCN(CC(O)COc2ccc(Cl)c(Cl)c2)C1 (some centres unmarked) [CU194]", "5 uM Avg Cell # Score": 100}

Value sought for every listed molecule: 5 uM Avg Cell # Score.
1. N#Cc1cccc(OCC(O)CN2CCC(Nc3nccc(C(F)(F)F)n3)CC2)c1 (centres unmarked) [CU082]
2. COCC1CCCN1CC(O)COc1ccc(Cl)c(Cl)c1 (centres unmarked) [CU128]
3. CC(=O)Nc1cccc(OCC(O)CN2CCC(Nc3nccc(C(F)(F)F)n3)C2)c1 (centres unmarked) [CU100]

Result block:
[89, 85, 80]

Hi! Can you tell me 5 uM Avg Cell # Score for each of these molecules?
1. O=C(CCOc1ccc(Cl)c(Cl)c1)N1CCC(Nc2nccc(C(F)(F)F)n2)CC1 [CU110]
2. CN(CC(O)COc1ccc(Cl)c(Cl)c1)C1CCNC1 (centres unmarked) [CU143]
3. OC(COc1cccc2[nH]ccc12)CN1CCC(Nc2nccc(C(F)(F)F)n2)CC1 (centres unmarked) [CU116]

Result block:
[79, 113, 99]

---

- Test system: S. Typhimurium SL1344 (sifB::gfp) in RAW 264.7 macrophages
- protocolDescription: SAFIRE macrophage assay: intracellular bacterial load (GFP signal within macrophages)
- Assay type: cell-based, Salmonella enterica serotype Typhimurium
- protocolConditions: Salmonella enterica, TYPHIMURIUM, RAW264.7, read-out: SAFIRE IC50
measuredAttribute: pIC50
One number for each entry, as −log10 of the molar value.

Answer for every listed entry: what is its pIC50? The entries follow.
1. NC1CCN(C[C@H](O)COc2ccc(Cl)c(Cl)c2)C1 (some centres unmarked)
2. N[C@@H]1CCN(C[C@H](O)COc2ccc(Cl)c(Cl)c2)C1
3. OC(CN[C@H]1[C@@H]2CNC[C@@H]21)COc1cc(Cl)cc(Cl)c1 (some centres unmarked)
4. N[C@@H]1CCN(C[C@@H](O)COc2ccc(Cl)c(Cl)c2)C1

Result block:
[8.59, 8.09, 6.43, 7.87]

Quick batch: pIC50 for everything below.
1. N[C@H]1CCN(C[C@@H](O)COc2ccc(Cl)c(Cl)c2)C1
2. NC1CCN(CC(O)COc2c(Cl)cccc2Cl)CC1 (centres unmarked)

Result block:
1. 8.04
2. 8.16

Quick one: give me pIC50 for each item below, same order please.
1. N[C@@H]1CCN(CC(O)COc2ccc(Cl)c(Cl)c2)C1 (some centres unmarked)
2. OC(COc1ccc(Cl)c(Cl)c1)CN1CCC(n2ccnc2)CC1 (centres unmarked)
3. NC1CCN(CC(O)COc2ccc(Cl)cc2)CC1 (centres unmarked)
4. NC1CCN(C[C@@H](O)COc2ccc(Cl)c(Cl)c2)C1 (some centres unmarked)
5. COCCCN(C)C1CCN(CC(O)COc2ccc(Cl)c(Cl)c2)CC1 (centres unmarked)

Result block:
[7.94, 7.35, 9.40, 7.09, 8.22]

For each of the items listed, what is its pIC50?
1. NC1CCN(CC(O)COc2cccc(C(F)(F)F)c2)CC1 (centres unmarked)
2. OC(COc1ccc(Cl)c(Cl)c1)CN1CCC(Nc2nccc(C(F)(F)F)n2)CC1 (centres unmarked)
3. NC1CCN(CC(O)COc2ccc(Cl)c(Cl)c2)C1 (centres unmarked)

Result block:
1: 8.16; 2: 5.46; 3: 7.76
